Origin of the recorded values: PubChem BioAssay (NCATS)

TEST_SUMMARY: Primary qHTS for Huh7 cytotoxicity: counterscreen for inhibitors of MERS-S pseudotyped particle cell entry (AID 1479147)
CONDITION_INFO: cell viability read-out; at 57.1 µM (top of the series) unless noted; series mostly up to 57.1 µM
Records with an inconclusive call do not appear. Active and inactive are the calls of the source. The call rests on the fitted dose curve.
PROPERTY_MEASURED: outcome

>>> reported_measurement("C[C@H]1COc2c(N3CCN(C)CC3)c(F)cc3c(=O)c(C(=O)O)cn1c23")
"inactive"
>>> reported_measurement("Nc1cccc2c1C(=O)N(C1CCC(=O)NC1=O)C2=O (configuration not stated)")
"inactive"
>>> reported_measurement("C[C@H](CCC(=O)O)[C@H]1CC[C@H]2[C@H]3[C@@H](CC[C@]12C)[C@@]1(C)CC[C@@H](O)C[C@H]1C[C@@H]3O")
"inactive"
>>> reported_measurement("CO/N=C(\\C(=O)N[C@@H]1C(=O)N2C(C(=O)O)=C(COC(C)=O)CS[C@H]12)c1csc(N)n1")
"inactive"
>>> reported_measurement("CC(=O)O[C@H]1C[C@@H]2CC[C@H]3[C@H]4C[C@H]([N+]5(C)CCCCC5)[C@@H](OC(C)=O)[C@@]4(C)CC[C@@H]3[C@@]2(C)C[C@H]1[N+]1(C)CCCCC1")
"inactive"
>>> reported_measurement("CCCC1O[C@@H]2C[C@H]3[C@@H]4CCC5=CC(=O)C=C[C@]5(C)[C@H]4[C@@H](O)C[C@]3(C)[C@]2(C(=O)CO)O1 (some centres not stated)")
"inactive"
